Sourced from patent US5969174A

assay overview: Stability in mouse serum/plasma
Type: in vitro ADME
measurement parameters: mouse, serum, DBA/2, C57BL/6, NCr nu/nu and CD2 F1 mice; read-out: T1/2, deethylation in mouse serum
property measured: half-life at 150 µM

Entry CCOC(=O)CNC(=O)[C@H](CSC(=O)N(O)c1ccc(Cl)cc1)NC(=O)CC[C@H](N)C(=O)OCC [2(Et)2] : reported half-life at 150 µM = ? < 30 s

* * *

assay overview: n-octanol/water partition coefficient
property measured: logP
Give the figure only, with no unit attached.

Given CCOC(=O)CNC(=O)[C@H](CSC(=O)N(O)c1ccc(Cl)cc1)NC(=O)CC[C@H](N)C(=O)OCC [2(Et)2] , state its recorded logP. 0.996

* * *

assay overview: Stability in mouse serum/plasma
Type: in vitro ADME
measurement parameters: mouse, serum, DBA/2 mice; n=3; read-out: T1/2 of sulfoxide in serum
property measured: half-life (min)
Number in min, nothing else.

What does the data say about its half-life? Entry: CC[S+]([O-])C(=O)N(O)c1ccc(Cl)cc1 (stereo not shown) 13

* * *

assay overview: Stability in human serum
Type: in vitro ADME
measurement parameters: human, serum; n=4; read-out: T1/2 in human serum (converted)
property measured: half-life at 150 µM (h)
// note: answer is a bare numeric in h

What value of half-life at 150 µM has been recorded for this entry: CCOC(=O)CNC(=O)[C@H](CSC(=O)N(O)c1ccc(Cl)cc1)NC(=O)CC[C@H](N)C(=O)OCC [2(Et)2] 9.1
